experimental.protocol: in vitro
Type: cell-based
experimental.setup: Vero E6, post-infection treatment setting, 48 h; read-out: CC50
Recorded CC50 at 48 h by entry
property.measured: CC50 at 48 h

INSERT INTO assay_data (query_smiles, reported) VALUES
  ('COc1cc(O)c(C(=O)[C@@H]2[C@H](CC=C(C)C)C(C)=CC[C@H]2c2ccccc2)c(O)c1', '14.7 µM'),
  ('CCCCC[C@H](O)CC(=O)CCc1ccc(O)c(OC)c1', '> 100 µM');

----------
experimental.protocol: in vitro
Type: cell-based
experimental.setup: African green monkey, CC50
property.measured: CC50 at 48 h (µM)

INSERT INTO results (molecule, property_measured, reported) VALUES
  ('C=C1CC[C@@H]2[C@](C)(CO)[C@H](O)CC[C@@]2(C)[C@@H]1C/C=C1/C(=O)OC[C@H]1O [Andrographolide]', 'CC50 at 48 h', 27.8);
